B1: TRIM63 (parent)
chain: QRITQEQEKKLSFIEALIQQYQEQ

variants of: B1; assay: protein stability index of a GFP-peptide fusion (GPS, HEK-293T) (PSI 1-6); higher = more stable; settings: c terminus: a fixed tail appended;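 also: lentivirally expressed fusions sorted by FACS into six bins by GFP to DsRed ratio, PSI derived from sequencing read proportions per bin multiplied by bin number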
RECORDED ENDPOINT: protein stability index
# print the numeric value only

Q: Value lookup for protein stability index; key = `Q20F`
A: 2.6

Q: Let us now turn to `Q19V`
A: 1.81

Q: # repeat for `R2F`
A: 2.06

Q: Would you mind doing `E8Y` as well?
A: 1.82

Continuing:
Q: Requested field: protein stability index. Item: `Y21V`
A: 2.32

Q: Try the variant `Q1R`
A: 2.16

Q: Also `Q1L` , if possible.
A: 2.57

Q: Thanks! And `Q19Y` ?
A: 1.64

Q: Thanks! And `L11P` ?
A: 2.78

Q: `T4F` , same question.
A: 2.2

Q: Another variant: `L17G`
A: 4.54

Q: And what about the variant `E15A` ?
A: 2.82
